- targetDesc: eIF4E (Homo sapiens, UniProt P06730)
- Sequence (P06730 32-217): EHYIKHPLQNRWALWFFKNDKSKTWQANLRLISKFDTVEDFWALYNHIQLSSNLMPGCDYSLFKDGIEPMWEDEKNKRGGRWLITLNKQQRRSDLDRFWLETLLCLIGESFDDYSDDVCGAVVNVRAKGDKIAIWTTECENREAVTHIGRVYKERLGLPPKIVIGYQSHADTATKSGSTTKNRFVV
- runDescription: biochemical
pKd: −log10 of the molar value.
Mark Criterion not met for pKd values under 5, and Criterion met for everything at or above.

Below are worked cases with known answers.
(Q) Could you tell me if the measured pKd of BP(=O)(OP(=O)([O-])OC[C@H]1O[C@@H](n2c[n+](C)c3c(=O)[nH]c(N)nc32)[C@H](O)[C@@H]1O)OP(=O)(O)OC[C@H]1O[C@@H](n2cnc3c(=O)[nH]c(N)nc32)[C@H](O)[C@@H]1O (some centres unmarked) [Compound 005-32] reaches 5 or more?
(A) Criterion met

(Q) Could you tell me if the measured pKd of C[n+]1cn([C@@H]2O[C@H](COP(=O)(O)OCCN(CCOP(=O)(O)OC[C@H]3O[C@@H](n4c[n+](C)c5c(=O)[nH]c(N)nc54)[C@H](O)[C@@H]3O)C(=O)OC(C)(C)C)[C@@H](O)[C@H]2O)c2nc(N)[nH]c(=O)c21 [Compound 008-25] reaches 5 or more?
(A) Criterion not met

(Q) Could you tell me if the measured pKd of CO[C@@H]1[C@H](O)[C@@H](COP(=O)([O-])OP(=O)([O-])OP(=O)(O)OC[C@H]2O[C@@H](n3c[n+](C)c4c(=O)[nH]c(N)nc43)[C@H](O)[C@@H]2O)O[C@H]1n1c[n+](C)c2c(=O)[nH]c(N)nc21 [Compound 005-7] reaches 5 or more?
(A) Criterion met

(Q) Could you tell me if the measured pKd of C[n+]1cn([C@@H]2O[C@H](COP(=O)([O-])OCCOCCOP(=O)([O-])OC[C@H]3O[C@@H](n4c[n+](C)c5c(=O)[nH]c(N)nc54)[C@H](O)[C@@H]3O)[C@@H](O)[C@H]2O)c2nc(N)[nH]c(=O)c21 [Compound 008-2] reaches 5 or more?
(A) Criterion not met

***
(Q) Could you tell me if the measured pKd of COCCO[C@@H]1[C@H](O)[C@@H](COP(=O)(O)OP(=O)([S-])OP(=O)(O)OC[C@H]2O[C@@H](n3cnc4c(=O)[nH]c(N)nc43)[C@H](O)[C@@H]2O)O[C@H]1n1c[n+](CCOc2ccc(Cl)cc2)c2c(=O)[nH]c(N)nc21 (some centres unmarked) [Compound 005-34] reaches 5 or more?
(A) Criterion met

(Q) Could you tell me if the measured pKd of C[n+]1cn([C@@H]2O[C@H](COP(=O)([O-])OP(=O)([O-])OC[C@H]3O[C@@H](n4c[n+](C)c5c(=O)[nH]c(N)nc54)[C@H](O)[C@@H]3O)[C@@H](O)[C@H]2O)c2nc(N)[nH]c(=O)c21 [Compound 005-15] reaches 5 or more?
(A) Criterion not met

----------
- targetDesc: eIF4E (Homo sapiens, UniProt P06730)
- runDescription: biochemical
valueType: Kd (nM)
Quick note: give the figure in nM, leave out the unit.

(Q) Look up and state reported Kd for CO[C@@H]1[C@H](O)[C@@H](COP(=O)(O)OP(=O)([O-])OP(=O)(O)OCC2CN(Cc3ccccc3)CC(n3c[n+](C)c4c(=O)[nH]c(N)nc43)O2)O[C@H]1n1cnc2c(=O)[nH]c(N)nc21 (some centres unmarked) [Compound 006-40]
(A) 1700
